subject-of-test: pseudo-kinase domain (JH2, amino-acids 536-812 with 3 surface mutations W659A, W777A, F794H) of human Wild Type JAK2 (Homo sapiens, UniProt O60674, F794H/W659A/W777A)
Construct: pseudo-kinase domain (JH2, amino-acids 536-812 with 3 surface mutations W659A, W777A, F794H); His (C); Avi (biotinylated) (C)
Sequence (O60674 536-812 W659A/W777A/F794H): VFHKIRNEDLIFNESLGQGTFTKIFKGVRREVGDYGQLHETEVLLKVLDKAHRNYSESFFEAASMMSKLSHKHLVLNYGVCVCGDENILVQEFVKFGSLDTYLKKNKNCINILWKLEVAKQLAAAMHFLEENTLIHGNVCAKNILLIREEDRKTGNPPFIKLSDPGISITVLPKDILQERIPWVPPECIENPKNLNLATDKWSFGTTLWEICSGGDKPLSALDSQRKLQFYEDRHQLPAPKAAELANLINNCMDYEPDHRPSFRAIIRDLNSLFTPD
assay-notes: JAK2 LanthaScreen JH2-WT Binding Assay
experimental-context: JAK2 JH2-WT (0.145 nM), 50 nM Fluorescent JAK2-JH2 Tracer, 1 hour at 25° C.; read-out: JH2 BIND WT
Reported IC50 values follow for various molecules

input: Given the entry CC(C)n1c(=O)n(C)c2cnc3[nH]c(-c4cnn(C)c4)c(C4CCN(C(=O)Cc5ccc(S(C)(=O)=O)cc5)CC4)c3c21 , report its measured IC50.
output: 0.01 to 0.1 µM

input: How about CS(=O)(=O)C1CCN(Cc2ccc(-c3cc4c(ncc5[nH]c(=O)n(-c6ccccc6)c54)[nH]3)cc2)CC1 ?
output: 0.1 to 0.5 µM

input: How about COc1ccc(-c2c(-c3ccc(CN4CCC(S(C)(=O)=O)CC4)cc3)[nH]c3ncc4c(c23)n(C2CCCCC2)c(=O)n4C)cc1 ?
output: ≤ 0.01 µM

input: How about CC(C)n1c(=O)n(C)c2cnc3[nH]c(-c4cnn(CC(C)(C)O)c4)c(-c4ccc5cnccc5c4)c3c21 ?
output: 0.01 to 0.1 µM

---

subject-of-test: catalytic domain (JH1, amino acids 826-1132) of human JAK2 (Homo sapiens, UniProt O60674)
Construct: catalytic domain (JH1, amino acids 826-1132) of human JAK2; FLAG (N)
Sequence (O60674 826-1132): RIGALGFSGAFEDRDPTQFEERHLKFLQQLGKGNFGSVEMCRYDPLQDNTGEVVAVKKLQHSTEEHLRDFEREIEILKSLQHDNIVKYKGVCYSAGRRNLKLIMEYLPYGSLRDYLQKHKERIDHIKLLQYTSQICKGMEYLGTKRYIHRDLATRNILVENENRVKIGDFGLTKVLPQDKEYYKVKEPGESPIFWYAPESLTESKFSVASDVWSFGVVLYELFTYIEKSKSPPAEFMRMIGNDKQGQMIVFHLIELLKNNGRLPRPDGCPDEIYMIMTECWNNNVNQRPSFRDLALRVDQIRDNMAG
assay-notes: JAK2 LanthaScreen JH1 Binding Assay
experimental-context: JAK2 JH1 (1.5 nM), 50 nM fluorescent JAK2-JH1 tracer, 2 hours at 25° C.; read-out: JH1 BIND
Reported IC50 values follow for various compounds

compound: Cn1ncc2cc(-c3c(C4CC4)[nH]c4ncc5c(c34)n(C3CCCC3)c(=O)n5C)ccc21
IC50: 500 to 1000 nM

compound: Cn1cc(-c2[nH]c3ncc4c(c3c2-c2ccc3c(cnn3C)c2)n([C@H]2CC[C@@H](CC#N)CC2)c(=O)n4C)cn1
IC50: 10 to 100 nM

compound: Cn1cc(-c2cc3c(ncc4c3[nH]c(=O)n4C)[nH]2)cn1
IC50: 100 to 500 nM

compound: CC(C)n1c(=O)n(C)c2cnc3[nH]c(-c4ccc(CN5CCC(S(C)(=O)=O)CC5)cc4)c(-c4ccccc4)c3c21
IC50: 100 to 500 nM

compound: Cn1c(=O)n(C)c2c3c(C4CC4)c(-c4ccc(CN5CCC(S(C)(=O)=O)CC5)cc4)[nH]c3ncc21
IC50: 500 to 1000 nM

input: Given the entry COc1ccc(-n2c(=O)n(C)c3cnc4[nH]c(-c5ccc(CN6CCC(S(C)(=O)=O)CC6)cc5)cc4c32)cc1 , report its measured IC50.
output: 10 to 100 nM

input: How about CC(C)n1c(=O)n(C)c2cnc3[nH]c(Cc4ccc(C#N)cc4)c(-c4ccc5c(cnn5C)c4)c3c21 ?
output: > 1000 nM

input: How about COC1CC=C(c2c(-c3ccc(CN4CCC(S(C)(=O)=O)CC4)cc3)[nH]c3ncc4c(c23)n(C2CCCC2)c(=O)n4C)CC1 (stereo not drawn) ?
output: 10 to 100 nM

input: How about CC(C)n1c(=O)n(C)c2cnc3[nH]c(-c4cnn(CC(C)(C)O)c4)c(-c4ccc(COC5CCOCC5)cc4)c3c21 ?
output: > 1000 nM
